molecular target: Protein kinase C beta type (Homo sapiens); settings: at 0.1 µM;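 further: PKC-beta1 splice variant of the enzyme, figure reported as mean inhibition, measured within the GSK PKIS kinase profiling panel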
Description: GSK_PKIS: PKC-beta1 (splice variant) mean inhibition at 0.1 uM [Nanosyn]
readoutType: inhibition (%)
Answer in %, number only, no unit symbol.

In the examples that follow, each entry is paired with its recorded inhibition.
smilesText	observedResult
c1ccc(Nc2ncc(-c3ccccc3)o2)cc1	-0.26
ON=C1CCc2cc(-c3nc(C4CCNCC4)[nH]c3-c3ccncc3)ccc21	-0.12
Cc1cc(Cl)cc2c1NC(=O)C2=NNc1ccc(S(N)(=O)=O)cc1	0.78
CN(c1ccc(NC(=O)Nc2ccc(OC(F)(F)F)cc2)cc1)c1ccnc(Nc2cccc(S(N)(=O)=O)c2)n1	0.45

Please examine the following record next.
Req: Fill in reported inhibition for this entry: `N#Cc1cccc(Nc2nccc(-c3cnn4ncccc34)n2)c1`
Resp: 2.69
